Tested on: Eimeria acervulina
experiment.notes: Anticoccidial activity in chicken against Eimeria acervulina.
Type: functional
Parameters: concentration or dose not given beside the values
property.name: Reduction (%)
One number for each entry, in %.

Look over these answered cases.
INSERT INTO results (chemical_structure, experimental_system, test_value) VALUES
  ('Cc1cc(C)nc(O)n1.O=C(Nc1ccc([N+](=O)[O-])cc1)Nc1ccc([N+](=O)[O-])cc1', 'Eimeria acervulina', 80),
  ('NC(=O)c1nnn(Cc2cc(Cl)c(C(=O)c3ccc(Cl)cc3)c(Cl)c2)c1N', 'Eimeria acervulina', 90),
  ('NC(=O)c1nnn(Cc2cc(Cl)c(C(=O)c3ccc(F)cc3)c(Cl)c2)c1N', 'Eimeria acervulina', 90),
  ('NC(=O)c1nnn(Cc2cc(F)c(C(=O)c3ccc(Cl)cc3)c(Cl)c2)c1N', 'Eimeria acervulina', 90),
  ('NC(=O)c1nnn(Cc2cc(Cl)c(C(=O)c3ccc(Cl)c(Cl)c3)c(Cl)c2)c1N', 'Eimeria acervulina', 90);

Kindly consider the entry below.
Ask | Which measured Reduction value corresponds to "NC(=O)c1nnn(Cc2ccc(C(=O)c3ccc(Cl)cc3)c(Cl)c2)c1N" ?
Reply | 90

* * *

Organism: Gallus gallus
experiment.notes: The compound was tested for anti-coccidial activity in chicken against Eimeria acervulina
Assay type: organism-based
reported.conditions: in vivo
property.name: minimum effective dose

Ask | Which measured minimum effective dose value corresponds to "NC(=O)c1c(N)nnn1Cc1cc(Cl)c(C(=O)c2ccc(Cl)cc2)c(Cl)c1" ?
Reply | > 500 ppm

* * *

Field: Reduction. Provide a value for each of the compounds that follow.
Tested on: Eimeria acervulina
experiment.notes: Anticoccidial activity in chicken against Eimeria acervulina.
Assay type: functional
Parameters: concentration or dose not given beside the values
Numbers only, in %.

Look over these answered cases.
INSERT INTO measurements (compound, experimental_system, property_name, test_value) VALUES
  ('NC(=O)c1nnn(Cc2ccc(Cl)c(C(=O)c3ccc(Cl)cc3)c2)c1N', 'Eimeria acervulina', 'Reduction', 90),
  ('CC[C@@]1([C@@H]2O[C@@H]([C@H]3O[C@@](O)(CO)[C@H](C)C[C@@H]3C)C[C@@H]2C)CC[C@H]([C@]2(C)CC[C@]3(C[C@H](O)[C@@H](C)[C@@H]([C@@H](C)[C@@H](OC)[C@H](C)C(=O)O)O3)O2)O1 [MONENSIN]', 'Eimeria acervulina', 'Reduction', 80),
  ('NC(=O)c1nnn(Cc2ccc(C(=O)c3c(Cl)cc(Cl)cc3Cl)cc2)c1N', 'Eimeria acervulina', 'Reduction', 90);

Provide reported Reduction for each item, in the same order as listed.
1. Nc1ncnc2c1ncn2Cc1c(F)cccc1Cl [ARPRINOCID]
2. N#Cc1ccc(C(=O)c2c(Cl)cc(Cn3nnc(C(N)=O)c3N)cc2Cl)cc1

Reply |
1. 80
2. 90

* * *

Field: Reduction. Provide a value for each of the compounds that follow.
Tested on: Eimeria acervulina
experiment.notes: Anticoccidial activity in chicken against Eimeria acervulina.
Format: functional
Parameters: concentration or dose not given beside the values
One number for each entry, in %.

INSERT INTO assay_data (chemical_structure, test_value) VALUES
  ('NC(=O)c1nnn(Cc2cc(Cl)c(C(=O)c3ccc(I)cc3)c(Cl)c2)c1N', 90),
  ('NC(=O)c1nnn(Cc2ccc(Cl)c(Cl)c2)c1N', 80);

Provide reported Reduction for each item, in the same order as listed.
1. NC(=O)c1nnn(Cc2cc(Cl)c(C(=O)c3ccc(Cl)cc3)c(Br)c2)c1N
2. N=C(N/N=C/c1ccc(Cl)cc1)N/N=C/c1ccc(Cl)cc1
3. CC[C@@H](C(=O)[C@@H](C)[C@@H](O)[C@H](C)CCc1ccc(C)c(O)c1C(=O)O)[C@H]1O[C@](CC)([C@H]2CC[C@](O)(CC)[C@H](C)O2)C[C@@H]1C
4. NC(=O)c1nnn(Cc2cccc(C(=O)c3ccc(Cl)cc3)c2)c1N
5. CCCc1ncc(C[n+]2ccccc2C)c(N)n1.Cl.[Cl-]
6. NC(=O)c1nnn(Cc2cc(Cl)c(C(=O)c3ccc(C(Cl)=C(Cl)Cl)cc3)c(Cl)c2)c1N

Reply |
1: 90; 2: 80; 3: 80; 4: 90; 5: 80; 6: 90

Source of measurements: ChEMBL document CHEMBL1125210
